pKi reference
- target entity: Human recombinant cyclophilin A (CypA) (Homo sapiens, UniProt P62937)
- Construct: purchased Sigma C3805
- Sequence (P62937 whole entry): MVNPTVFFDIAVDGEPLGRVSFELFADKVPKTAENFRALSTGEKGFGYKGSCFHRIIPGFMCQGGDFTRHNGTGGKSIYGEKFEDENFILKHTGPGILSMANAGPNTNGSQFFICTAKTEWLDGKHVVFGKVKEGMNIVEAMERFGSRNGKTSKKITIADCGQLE
- assay procedure: Protease-free PPIase assay, cyclophilin A
- Format: biochemical
- assay context: human recombinant CypA, 10 °C, SUC-AAPF-pNA substrate; read-out: CypA Protease-free PPIase Assay Ki
Starred links: 1 amine or outer side, 2 acyl side, 3 side chain; linkers in the order of their positions; H or OH if unused. Non-standard residues stand in square brackets, D forms with d. Residues, ends and D or L forms follow the SMILES beside them. X1 = C[C@@H]1CCO[C@H]1[C@H](C(=O)[*:2])N(C)[*:1]; d(aThr) = C[C@@H](O)[C@@H](N)C(=O)O; NMeL = CN[C@@H](CC(C)C)C(=O)O; dNMeL = CN[C@H](CC(C)C)C(=O)O; dNMeV = CN[C@@H](C(=O)O)C(C)C; dNMeA = CN[C@H](C)C(=O)O
Reminder that pKi means the negative base-10 logarithm of the concentration expressed in mol/L.

CC[C@H]1NC(=O)[C@@H](C2OC(C)C[C@H]2C)N(C)C(=O)[C@@H](C(C)C)N(C)C(=O)[C@@H](CC(C)C)N(C)C(=O)[C@@H](CC(C)C)N(C)C(=O)[C@H](C)NC(=O)[C@@H](C)NC(=O)[C@@H](CC(C)C)N(C)C(=O)[C@@H](C(C)C)NC(=O)[C@H](CC(C)C)N(C)C(=O)[C@@H](C)N(C)C1=O (some centres unmarked) :: 6.56
CC[C@H]1NC(=O)[C@@H]([C@@H]2OC(O)C[C@H]2C)N(C)C(=O)[C@@H](C(C)C)N(C)C(=O)[C@@H](CC(C)C)N(C)C(=O)[C@@H](CC(C)C)N(C)C(=O)[C@H](C)NC(=O)[C@@H](C)NC(=O)[C@@H](CC(C)C)N(C)C(=O)[C@@H](C(C)C)NC(=O)[C@H](CC(C)C)N(C)C(=O)[C@@H](C)N(C)C1=O (some centres unmarked) :: 7.31

Incoming: Give pKi; test system Human recombinant cyclophilin A (CypA) (Homo sapiens, UniProt P62937); molecule CC[C@H]1NC(=O)[C@@H]([C@@H]2OC(=O)N(C)C[C@H]2C)N(C)C(=O)[C@@H](C(C)C)N(C)C(=O)[C@@H](CC(C)C)N(C)C(=O)[C@@H](CC(C)C)N(C)C(=O)[C@H](C)NC(=O)[C@@H](C)NC(=O)[C@@H](CC(C)C)N(C)C(=O)[C@@H](C(C)C)NC(=O)[C@H](CC(C)C)N(C)C(=O)[C@@H](C)N(C)C1=O
Outgoing: 6.50

Incoming: Give pKi; test system Human recombinant cyclophilin A (CypA) (Homo sapiens, UniProt P62937); molecule CC[C@H]1NC(=O)[C@H]([C@H]2NCC[C@H]2C)N(C)C(=O)[C@@H](C(C)C)N(C)C(=O)[C@@H](CC(C)C)N(C)C(=O)[C@@H](CC(C)C)N(C)C(=O)[C@H](C)NC(=O)[C@@H](C)NC(=O)[C@@H](CC(C)C)N(C)C(=O)[C@@H](C(C)C)NC(=O)[C@H](CC(C)C)N(C)C(=O)[C@@H](C)N(C)C1=O
Outgoing: 6.83

Incoming: Give pKi; test system Human recombinant cyclophilin A (CypA) (Homo sapiens, UniProt P62937); molecule CC(C)C[C@@H]1C(=O)N(C)[C@H](CC(C)C)C(=O)N(C)[C@H](C(C)C)C(=O)N(C)[C@H]([C@@H]2OCC[C@H]2C)C(=O)N[C@H]([C@@H](C)O)C(=O)N(C)CC(=O)N(C)[C@@H](CC(C)C)C(=O)N[C@H](C(C)C)C(=O)N(C)[C@H](CC(C)C)C(=O)N[C@H](C)C(=O)N[C@@H](C)C(=O)N1C
Outgoing: 5.82

Incoming: Give pKi; test system Human recombinant cyclophilin A (CypA) (Homo sapiens, UniProt P62937); molecule CC(C)C[C@@H]1C(=O)N(C)[C@H](CC(C)C)C(=O)N(C)[C@H](C(C)C)C(=O)N(C)[C@H]([C@@H]2OCC[C@H]2C)C(=O)N[C@H]([C@@H](C)O)C(=O)N(C)[C@H](C)C(=O)N(C)[C@@H](CC(C)C)C(=O)N[C@H](C(C)C)C(=O)N(C)[C@H](CC(C)C)C(=O)N[C@H](C)C(=O)N[C@@H](C)C(=O)N1C [Compound 11] (cyclo(A[dNMeL][dNMeL][dNMeV][X1][d(aThr)][dNMeA][NMeL][dV][dNMeL][dA]))
Outgoing: 6.57

Incoming: Give pKi; test system Human recombinant cyclophilin A (CypA) (Homo sapiens, UniProt P62937); molecule CC(C)C[C@@H]1C(=O)N(C)[C@H](CC(C)C)C(=O)N(C)[C@H](C(C)C)C(=O)N(C)[C@H]([C@@H]2OCC[C@H]2C)C(=O)N[C@H](C(C)C)C(=O)N(C)[C@H](C)C(=O)N(C)[C@@H](CC(C)C)C(=O)N[C@H](C(C)C)C(=O)N(C)[C@H](CC(C)C)C(=O)N[C@H](C)C(=O)N[C@@H](C)C(=O)N1C [Compound 6] (cyclo(A[dNMeL][dNMeL][dNMeV][X1][dV][dNMeA][NMeL][dV][dNMeL][dA]))
Outgoing: 8.25

Incoming: Give pKi; test system Human recombinant cyclophilin A (CypA) (Homo sapiens, UniProt P62937); molecule CCC[C@@H]1C(=O)N(C)[C@@H](CC(C)C)C(=O)N[C@H](C(C)C)C(=O)N(C)[C@H](CC(C)C)C(=O)N[C@H](C)C(=O)N[C@@H](C)C(=O)N(C)[C@H](CC(C)C)C(=O)N(C)[C@H](CC(C)C)C(=O)N(C)[C@H](C(C)C)C(=O)N(C)[C@H]([C@@H]2OCC[C@H]2C)C(=O)N[C@H](CC)C(=O)N1C
Outgoing: 6.63

Incoming: Give pKi; test system Human recombinant cyclophilin A (CypA) (Homo sapiens, UniProt P62937); molecule CC[C@H]1NC(=O)[C@@H]([C@@H]2OCC[C@H]2C)N(C)C(=O)[C@@H](C(C)C)N(C)C(=O)[C@@H](CC(C)C)N(C)C(=O)[C@@H](CC(C)C)N(C)C(=O)[C@H](C)NC(=O)[C@@H](C)NC(=O)[C@@H](CC(C)C)N(C)C(=O)[C@@H](C(C)C)NC(=O)[C@H](CC(C)C)N(C)C(=O)CN(C)C1=O
Outgoing: 6.29

Incoming: Give pKi; test system Human recombinant cyclophilin A (CypA) (Homo sapiens, UniProt P62937); molecule CC(C)C[C@@H]1C(=O)N(C)[C@H](CC(C)C)C(=O)N(C)[C@H](C(C)C)C(=O)N(C)[C@H]([C@@H]2OCC[C@H]2C)C(=O)N[C@H](C)C(=O)N(C)[C@H](C)C(=O)N(C)[C@@H](CC(C)C)C(=O)N[C@H](C(C)C)C(=O)N(C)[C@H](CC(C)C)C(=O)N[C@H](C)C(=O)N[C@@H](C)C(=O)N1C [Compound 10] (cyclo(A[dNMeL][dNMeL][dNMeV][X1][dA][dNMeA][NMeL][dV][dNMeL][dA]))
Outgoing: 5.70

Incoming: Give pKi; test system Human recombinant cyclophilin A (CypA) (Homo sapiens, UniProt P62937); molecule CC[C@H]1NC(=O)[C@H]([C@H]2OCC[C@H]2C)N(C)C(=O)[C@@H](C(C)C)N(C)C(=O)[C@@H](CC(C)C)N(C)C(=O)[C@@H](CC(C)C)N(C)C(=O)[C@H](C)NC(=O)[C@@H](C)NC(=O)[C@@H](CC(C)C)N(C)C(=O)[C@@H](C(C)C)NC(=O)[C@H](CC(C)C)N(C)C(=O)[C@@H](C)N(C)C1=O
Outgoing: 7.10
